# SYSTEM UNDER TEST: CRTH2 (Homo sapiens)
# Sequence (Q9Y5Y4 whole entry): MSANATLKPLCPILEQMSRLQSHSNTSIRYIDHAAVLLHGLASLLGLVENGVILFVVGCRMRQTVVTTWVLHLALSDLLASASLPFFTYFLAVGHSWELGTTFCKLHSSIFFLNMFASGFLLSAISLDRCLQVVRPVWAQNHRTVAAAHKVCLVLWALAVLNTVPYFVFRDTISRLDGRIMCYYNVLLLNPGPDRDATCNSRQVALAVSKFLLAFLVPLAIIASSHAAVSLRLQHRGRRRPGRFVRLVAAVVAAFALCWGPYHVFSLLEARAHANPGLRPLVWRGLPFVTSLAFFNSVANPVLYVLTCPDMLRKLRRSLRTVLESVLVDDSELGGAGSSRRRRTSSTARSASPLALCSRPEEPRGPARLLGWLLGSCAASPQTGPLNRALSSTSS
# ASSAY INFO: FRET based competitive immunoassay (cAMP) in CRTH2 expressing CHO cells
# TEST CONTEXT: CRTH2 expressing CHO cells incubated with forskolin and PGD2; Eu3+ cryptate-labeled anti-cAMP and d2-labeled cAMP
REPORTED ENDPOINT: pIC50
Bear in mind: pIC50 is minus log10 of a mol/L concentration; give just that figure.

Problem: Return reported pIC50; argument: Cc1c(-c2ccc(=O)n(CCC(C(F)(F)F)C(F)(F)F)c2)c2cc(F)ccc2n1CC(=O)O [Example 316]
Result: 7.41

Problem: Now consider Cc1c(Cc2ccc(=O)n(Cc3ccc(F)cc3F)c2)c2cc(Cl)ccc2n1CC(=O)O [Example 42] .
Result: 8.15

Problem: Now consider Cc1c(-c2ccc(=O)n(CCc3ccc(F)cc3)n2)c2ccccc2n1CC(=O)O [Example 229] .
Result: 6.87

Problem: Now consider Cc1c(-c2nn(CCc3ccc(F)cc3)c(=O)c3ccccc23)c2cc(F)ccc2n1CC(=O)O [Example 227] .
Result: 8.52

Problem: Now consider Cc1c(-c2nn(Cc3ccccc3)c(=O)c3ccccc23)c2cc(F)cc(Cl)c2n1CC(=O)O [Example 243] .
Result: 7.48

Problem: Now consider Cc1c(-c2nn(Cc3ccc(C(F)(F)F)c(F)c3)c(=O)c3ccccc23)c2cc(F)ccc2n1CC(=O)O [Example 6] .
Result: 7.64

Problem: Now consider Cc1c(-c2nn(C(C)C)c(=O)c3ccccc23)c2ccccc2n1CC(=O)O [Example 326] .
Result: 7.21

Problem: Now consider Cc1c(-c2ccc(=O)n(Cc3cccc(F)c3)c2)c2cc(Cl)ccc2n1CC(=O)O [Example 295] .
Result: 7.96

Problem: Now consider Cc1c(-c2nn(Cc3cc(F)ccc3F)c(=O)c3ccccc23)c2cc(F)ccc2n1CC(=O)O [Example 62] .
Result: 8.05

Problem: Now consider Cc1c(-c2ccc(=O)n(Cc3ccc(F)cc3)n2)c2cc(Cl)ccc2n1CC(=O)O [Example 139] .
Result: 7.62

Problem: Now consider Cc1c(Cc2ccc(=O)n(Cc3ccc(F)cc3)n2)c2cc(F)ccc2n1CC(=O)O [Example 342] .
Result: 7.89

Problem: Now consider Cc1c(-c2ccc(=O)n(CC3CC3)n2)c2cc(F)ccc2n1CC(=O)O [Example 161] .
Result: 7.64

Problem: Now consider Cc1c(-c2ccc(=O)n(Cc3ccc(F)cc3F)c2)c2ccccc2n1CC(=O)O [Example 275] .
Result: 7.52

Problem: Now consider Cc1c(-c2nn(CC(C)(C)C)c(=O)c3ccccc23)c2cc(F)ccc2n1CC(=O)O [Example 126] .
Result: 8.10

Problem: Now consider Cc1c(-c2ccc(=O)n(Cc3c(F)cccc3F)c2)c2cc(Cl)ccc2n1CC(=O)O [Example 291] .
Result: 8.10

Problem: Now consider CCn1nc(-c2c(C)n(CC(=O)O)c3ccc(Cl)cc23)c2ccccc2c1=O [Example 106] .
Result: 7.64

Problem: Now consider Cc1c(-c2nn(Cc3ccccn3)c(=O)c3ccccc23)c2cc(F)ccc2n1CC(=O)O [Example 136] .
Result: 8.40

Problem: Now consider Cc1c(-c2ccc(=O)n(Cc3ccc(C(F)(F)F)cc3)n2)c2cc(Cl)ccc2n1CC(=O)O [Example 213] .
Result: 7.72

Problem: Now consider Cc1c(-c2nn(Cc3ccc4ccccc4n3)c(=O)c3ccccc23)c2cc(F)ccc2n1CC(=O)O [Example 118] .
Result: 8.05

Problem: Now consider Cc1c(-c2nn(CCOc3ccc(Cl)cc3)c(=O)c3ccccc23)c2cc(F)ccc2n1CC(=O)O [Example 210] .
Result: 8.70
